system: human PBMCs; assay: Human PBMC cytokine response assay (IFN-γ and IFN-α in cell-free medium by ELISA), with or without cPLGA; assay type: cell-based; settings: Table 9; donor 28089
IFN-γ below 10 pg/mL gives Condition not met; IFN-γ at or above it gives Condition met.

Reported IFN-γ reaches at least 10 pg/mL for 5′-TCGTCGA-3′-C3-5′-TCGTCGA-3′-C3-5′-TCGTCGA-3′ all phosphorothioate linkages [Compound C-33] ?
Condition not met

Next: (5′-TCGTCGA-3′-HEG)2-glycerol-HEG-5′-TCGTCGA-3′ (phosphodiester) [Compound C-93]
Condition not met

Next: 5′-TCGTCG-3′-HEG-5′-ACGTTCG-3′-HEG-5′-AGATGAT-3′-TEG [Compound C-29]
Condition met

Next: 5′-TCGTCGA-3′-HEG-5′-ACGTTCG-3′-HEG-5′-AGATGAT-3′ [Compound C-8]
Condition met

Next: HEG-5′-TCGTCG-3′-HEG-5′-ACGTTCG-3′-HEG-5′-AGATGAT-3′-TEG [Compound C-30]
Condition not met

Next: HEG-5′-TCGTCG-3′-HEG-5′-ACGTTCG-3′-HEG-5′-AGATGAT-3′-TEG (phosphodiester linkages) [Compound C-31]
Condition not met

Next: 5′-TCGTCGA-3′- C3-5′-ACGTTCG-3′-C3-5′-AGATGAT-3′ [Compound C-9]
Condition met

Next: (5′-TCGTCGA-3′)2-glycerol-5′-TCGTCGA-3′ [Compound C-28]
Condition met

Next: 5′-TCGTCG-3′-HEG-5′-ACGTTCG-3′-HEG-5′-AGATGAT-3′ [Compound C-10]
Condition met
